# assay_target: T1, recombinant human PD-L2 (human PD-L2 antigen) (human, UniProt Q9BQ51 20-219, limits assumed)
# T1 construct: The Biacore analyte and the ELISA antigen are only called human PD-L2 antigen / recombinant hPD-L2; Whole entry named; also called hPD-L2; recombinant hPD-L2
# T1 sequence (looked up): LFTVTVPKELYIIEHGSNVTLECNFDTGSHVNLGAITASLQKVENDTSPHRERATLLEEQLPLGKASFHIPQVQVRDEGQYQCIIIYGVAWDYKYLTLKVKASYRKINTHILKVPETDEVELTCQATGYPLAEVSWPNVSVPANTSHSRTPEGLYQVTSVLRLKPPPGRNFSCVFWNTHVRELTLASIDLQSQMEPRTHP
# method_summary: SPR (Biacore 8K), single cycle kinetics, antibody in culture supernatant, human PD-L2 antigen
Consider the following binders; for each one, report its pKd.
Please keep in mind that pKd is minus log10 of the molar concentration; only the number is needed.

Using the record for VH1/VK0 (antibody, V domains shown, hIgG1 backbone, CHO expressed) VH: QVQLVQSGAELKKPGSSVKVSCKASGYAFSNYFIEWVKQPPGKGLEWIGLNIPGSGGSNYAEKFKGRATITADKSTSTAYMELSSLTSEDSAVYFCARRRLPPDWYFDVWGQGTTVTVSS VL: DVVMTQTPLSLPVSLGDQASISCRSSQSLVHSDGNTYLHWYLQKPGQSPKLLIYKVSNRFSGVPDRFSGSGSGTDFTLKISRVEAEDLGVYFCSQSTHVPWTFGGGTKLEIK , report its pKd.
10.37

Using the record for VH4/VK1 (antibody, V domains shown, hIgG1 backbone, CHO expressed) VH: QVQLVQSGAEVKKPGSSVKVSCKASGYAFSNYFIEWVKQPPGKGLEWIGLNIPGSGGSNYAEKFKGRVTITADKSTSTAYMELSSLRSEDTAVYYCARRRLPPDWYFDVWGQGTTVTVSS VL: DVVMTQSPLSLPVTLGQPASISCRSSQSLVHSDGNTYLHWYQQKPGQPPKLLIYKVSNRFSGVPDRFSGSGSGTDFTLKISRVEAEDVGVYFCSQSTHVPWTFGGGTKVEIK , report its pKd.
10.23

Using the record for VH6/VK1 (antibody, V domains shown, hIgG1 backbone, CHO expressed) VH: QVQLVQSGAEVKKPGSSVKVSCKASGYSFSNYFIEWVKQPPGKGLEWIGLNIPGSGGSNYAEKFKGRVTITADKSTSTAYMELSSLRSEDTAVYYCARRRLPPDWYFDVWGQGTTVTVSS VL: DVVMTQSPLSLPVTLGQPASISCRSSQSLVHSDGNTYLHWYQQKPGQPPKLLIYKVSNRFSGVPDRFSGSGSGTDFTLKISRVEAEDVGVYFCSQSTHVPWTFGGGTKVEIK , report its pKd.
10.28

Using the record for VH4/VK2 (antibody, V domains shown, hIgG1 backbone, CHO expressed) VH: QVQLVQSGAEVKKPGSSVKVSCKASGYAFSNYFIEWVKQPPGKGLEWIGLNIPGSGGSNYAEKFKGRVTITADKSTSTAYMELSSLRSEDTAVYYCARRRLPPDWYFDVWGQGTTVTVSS VL: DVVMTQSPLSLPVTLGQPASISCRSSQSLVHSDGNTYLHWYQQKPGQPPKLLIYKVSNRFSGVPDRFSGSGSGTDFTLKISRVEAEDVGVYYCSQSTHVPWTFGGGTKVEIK , report its pKd.
10.22

Using the record for VH6/VK3 (antibody, V domains shown, hIgG1 backbone, CHO expressed) VH: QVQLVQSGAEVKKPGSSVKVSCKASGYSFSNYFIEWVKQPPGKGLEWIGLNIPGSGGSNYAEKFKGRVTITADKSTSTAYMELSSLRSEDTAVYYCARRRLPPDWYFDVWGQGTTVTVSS VL: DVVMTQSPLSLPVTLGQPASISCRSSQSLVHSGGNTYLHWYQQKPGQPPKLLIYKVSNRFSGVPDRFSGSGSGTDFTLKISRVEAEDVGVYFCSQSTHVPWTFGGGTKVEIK , report its pKd.
9.58

Using the record for VH3/VK1 (antibody, V domains shown, hIgG1 backbone, CHO expressed) VH: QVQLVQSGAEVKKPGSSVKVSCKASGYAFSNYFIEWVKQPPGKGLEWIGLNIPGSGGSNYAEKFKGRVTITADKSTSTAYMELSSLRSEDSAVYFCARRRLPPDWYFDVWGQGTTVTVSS VL: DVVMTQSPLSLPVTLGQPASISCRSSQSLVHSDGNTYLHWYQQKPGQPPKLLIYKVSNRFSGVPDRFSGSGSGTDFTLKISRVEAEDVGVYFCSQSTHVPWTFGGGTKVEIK , report its pKd.
10.22

Using the record for VH4/VK3 (antibody, V domains shown, hIgG1 backbone, CHO expressed) VH: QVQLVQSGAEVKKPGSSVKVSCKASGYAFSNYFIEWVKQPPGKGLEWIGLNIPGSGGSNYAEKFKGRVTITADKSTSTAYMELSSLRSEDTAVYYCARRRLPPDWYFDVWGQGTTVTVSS VL: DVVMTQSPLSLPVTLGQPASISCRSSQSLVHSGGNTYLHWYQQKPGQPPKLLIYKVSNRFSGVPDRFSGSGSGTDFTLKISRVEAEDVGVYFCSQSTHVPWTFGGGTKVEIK , report its pKd.
9.54

Using the record for VH7/VK2 (antibody, V domains shown, hIgG1 backbone, CHO expressed) VH: QVQLVQSGAELKKPGSSVKVSCKASGYAFSNYFIEWVKQPPGKGLEWIGLNIPGSGGSNYAEKFKGRATITADKSTSTAYMELSSLRSEDTAVYYCARRRLPPDWYFDVWGQGTTVTVSS VL: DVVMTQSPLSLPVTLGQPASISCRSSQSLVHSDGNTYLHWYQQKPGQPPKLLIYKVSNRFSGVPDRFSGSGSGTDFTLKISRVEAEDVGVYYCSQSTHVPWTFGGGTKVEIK , report its pKd.
10.28

Using the record for VH7/VK1 (antibody, V domains shown, hIgG1 backbone, CHO expressed) VH: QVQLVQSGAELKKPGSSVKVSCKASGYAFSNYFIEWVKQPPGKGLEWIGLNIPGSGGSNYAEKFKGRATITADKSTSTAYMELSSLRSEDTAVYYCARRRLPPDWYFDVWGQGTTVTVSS VL: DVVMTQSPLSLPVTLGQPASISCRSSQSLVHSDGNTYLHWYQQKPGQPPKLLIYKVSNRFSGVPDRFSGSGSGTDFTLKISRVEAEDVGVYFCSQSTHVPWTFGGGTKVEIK , report its pKd.
10.30

Using the record for VH0/VK0 chimeric antibody (hIgG1 backbone) (antibody, V domains shown, Mouse variable regions on human IgG1 backbone, expressed in CHO cells; also called chimeric anti-PDL2 lead mAb VH0/VK0) VH: QVQLQQSGAELVRPGTSVKVSCKASGYAFSNYFIEWVKQRPGQGLEWIGLNIPGSGGSNYAEKFKGKATLTADKSSSTAYMQLSSLTSEDSAVYFCARRRLPPDWYFDVWGTGTTVTVSS VL: DVVMTQTPLSLPVSLGDQASISCRSSQSLVHSDGNTYLHWYLQKPGQSPKLLIYKVSNRFSGVPDRFSGSGSGTDFTLKISRVEAEDLGVYFCSQSTHVPWTFGGGTKLEIK , report its pKd.
10.45
